- System Name: GlcNAc(b1-2)Man(a1-3)[GlcNAc(b1-4)][GlcNAc(b1-2)Man(a1-6)]Man(b1-4)GlcNAc(b1-4)GlcNAc
- Protocol Notes: glycan array binding signal (z-score within array); higher = stronger binding
- Condition Parameters: glycan notation: IUPAC condensed, linker removed
Many of the other results were omitted from the sample, so the strongest signals are more common in it than they were.
Provide the recorded glycan array binding signal (z-score) for the entries that follow.
Numbers only.

Binder: LlpA (Burkholderia cenocepacia) (protein) MGSSHHHHHHSSGLVPRGSHKILGSNETLSAGNVVYSDNGQYHLAMQTDGNLVVYGPTGAVWQSQTSGSGGNRAVMQGDGNLVIYRADNTAAWSSKTAHPGAFLAVQDDGNVVIYWPRPAWASNTSDPATQQSAESKYLASGSTMSAGQTVTVAQYMLVFQADGNLVLYKNGGNPIWSTGTQGKGATYAVMQSDGNFVIYAGSTALWSTKTNGANGAQLVLQSDGNLVIYAPTAAWSTKFGLVTAPTSTSTSNNGPGSGICVGVCPPHPLNGNPFSPVGVGTTGLGFPTPGYPGAAF
glycan array binding signal (z-score): 0.686

Need glycan array binding signal (z-score) for each of these binders.
1. LecB PA14 (Pseudomonas aeruginosa) (protein) MATQGVFTLPANTQFGVTAFANSAGTQTVNVQVNNETVATFTGQSTNNAIIGSKVLNSGGGGKVQILVSVNGRSSDLVSAQVILANELNFALVGSEDSTDNDYNDAVVVINWPLG
2. SAOUHSC 02783 (Staphylococcus aureus), Q5HD69 (protein) MIHSKKLTLGICLVLLIILIVGYVIMTKTNGRNAQIKDTFNQTLKLYPTKNLDDFYDKEGFRDQEFKKGDKGTWIVNSEMVIEPKGKDMETRGMVLYINRNTRTTKGYYFISEMTDDSNGRPKDDEKRYPVKMEHNKIIPTKPLPNDKLKKEIENFKFFVQYGNFKDINDYKDGDISYNPNVPSYSAKYQLNNDDYNVQQLRKRYDIPTKQAPKLLLKGDGDLKGSSVGSRSLEFTFVENKEENIYFTDSVQYTPSEDTRYESN
3. rPitB (Streptococcus pneumoniae), A0A0I7U739 (protein) MSEIEIINAKKIYHDVPVIENLNITIPKGSLFTLLGASGCGKTTLLRMIAGFNSIKDGEFYFDDTKINNMEPSKRNIGLVFQNYAIFPHLTVRDNVAFGLMQKKVPKEELIQQTNKYLELMQIAQYAD

Output:
1: -0.629; 2: -0.821; 3: -0.914
